system: UniProtKB P51639
Sequence (P51639 1-887): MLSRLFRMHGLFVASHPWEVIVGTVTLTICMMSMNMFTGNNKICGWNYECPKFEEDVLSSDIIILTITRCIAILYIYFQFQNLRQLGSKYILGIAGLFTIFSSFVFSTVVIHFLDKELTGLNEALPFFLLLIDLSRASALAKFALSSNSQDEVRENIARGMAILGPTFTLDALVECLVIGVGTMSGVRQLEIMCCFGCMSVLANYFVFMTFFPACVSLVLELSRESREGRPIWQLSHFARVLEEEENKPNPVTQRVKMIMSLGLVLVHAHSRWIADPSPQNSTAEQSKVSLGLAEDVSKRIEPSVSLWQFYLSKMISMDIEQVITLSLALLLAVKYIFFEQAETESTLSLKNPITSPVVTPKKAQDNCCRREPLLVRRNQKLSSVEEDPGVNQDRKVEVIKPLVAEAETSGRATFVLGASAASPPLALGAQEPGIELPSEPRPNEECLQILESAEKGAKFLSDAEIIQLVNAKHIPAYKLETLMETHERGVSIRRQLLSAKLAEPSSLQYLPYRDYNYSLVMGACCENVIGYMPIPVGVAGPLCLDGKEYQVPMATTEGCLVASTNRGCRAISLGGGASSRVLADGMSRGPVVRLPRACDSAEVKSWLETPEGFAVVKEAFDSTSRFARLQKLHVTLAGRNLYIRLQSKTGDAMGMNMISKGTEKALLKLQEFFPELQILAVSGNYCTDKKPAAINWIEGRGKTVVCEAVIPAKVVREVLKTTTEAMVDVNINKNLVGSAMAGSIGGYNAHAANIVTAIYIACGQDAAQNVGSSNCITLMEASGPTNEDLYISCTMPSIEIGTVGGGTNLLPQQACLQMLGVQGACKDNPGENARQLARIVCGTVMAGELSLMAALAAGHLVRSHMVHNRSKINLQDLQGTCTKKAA
quantity_measured: IC50 (nM)

[
  {
    "compound": "CC(C)c1nn(-c2ccccn2)c(-c2ccc(F)cc2)c1CC[C@H]1C[C@H](O)CC(=O)O1 (relative stereo)",
    "quantity_measured": "IC50",
    "value": 110
  }
]

Reference source: patent US4808621A
